Assay: Ratio of drug concentration in human blood to plasma at 5 uM incubated for 30 mins by LC-MS/MS analysis
Format: ADME, cell-free
Settings: whole blood
MEASURED ENDPOINT: blood plasma ratio at 0.5 h, 5 µM

>>> reading("CCN(CC)CCCC(C)Nc1ccnc2cc(Cl)ccc12 (configuration not stated)")
4.93
>>> reading("O=C(O)Cc1ccccc1Nc1c(Cl)cccc1Cl")
0.63

----------
Target: 5-hydroxytryptamine receptor 2A (Homo sapiens)
Sequence (P28223 whole entry): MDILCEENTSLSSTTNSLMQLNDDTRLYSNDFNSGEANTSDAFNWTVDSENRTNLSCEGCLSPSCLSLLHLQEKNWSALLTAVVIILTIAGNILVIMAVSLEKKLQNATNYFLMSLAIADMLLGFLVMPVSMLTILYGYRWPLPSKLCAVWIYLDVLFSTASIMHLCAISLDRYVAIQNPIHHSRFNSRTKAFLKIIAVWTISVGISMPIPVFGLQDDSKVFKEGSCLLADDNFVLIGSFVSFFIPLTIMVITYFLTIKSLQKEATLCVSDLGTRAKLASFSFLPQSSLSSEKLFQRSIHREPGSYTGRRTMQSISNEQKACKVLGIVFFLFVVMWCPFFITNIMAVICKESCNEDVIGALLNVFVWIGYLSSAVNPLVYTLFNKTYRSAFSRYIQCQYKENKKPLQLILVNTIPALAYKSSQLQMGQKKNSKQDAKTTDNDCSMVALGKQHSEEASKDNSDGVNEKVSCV
Assay: Displacement of [3H] ketanserin from human recombinant 5-HT2A receptor expressed in CHO-K1 cells assessed as inhibition constant incubated for 60 mins by spectrophotometric analysis
pKi: −log10 of the molar value.
Listed here are molecules together with their documented pKi.
MEASURED ENDPOINT: pKi

>>> reading("CN(C)CCc1c[nH]c2ccccc12.O=C(O)/C=C/C(=O)O")
7.40
>>> reading("O=C(O)/C=C/C(=O)O.[2H]C([2H])(Cc1c[nH]c2ccccc12)N(C)C")
7.22

Hey, just so you know, these numbers are from ChEMBL document CHEMBL5370593.
